Quick list: MIC per entry.
Tested on: Staphylococcus aureus
protocol notes: Antimicrobial activity against methicillin-sensitive Staphylococcus aureus ATCC 13709
Assay type: functional

CCOC(=O)[C@]12CO[C@H](C(C)(C)C)N1C(=O)/C(=C(/CC(F)(F)C(F)(F)C(F)(F)C(F)(F)C(F)(F)F)NCCCN1CCOCC1)C2=O; 32 µg/mL
O=C1CNC(=O)/C1=C(\NC1CCCCC1)c1cccc2ccccc12; > 32 µg/mL
CCOC(=O)[C@]12CO[C@H](C(C)(C)C)N1C(=O)/C(=C(\C)NCc1cccc(CN3CCC(C)CC3)c1)C2=O; > 32 µg/mL

## Input Name the reported MIC value associated with the compound O=C1CNC(=O)/C1=C(\NCc1ccccc1)c1cccc2ccccc12
## Output > 32 µg/mL

###

Documented MIC across a set of compounds
Test system: Streptococcus pneumoniae
protocol notes: Antimicrobial activity against penicillin- and erythromycin-resistant Streptococcus pneumoniae
Type: functional

These recorded examples may help you get a feel for the data.
C/C(Nc1ccccc1)=C1\C(=O)N2[C@H](C(C)(C)C)OC[C@@]2(C)C1=O (racemic); 8 µg/mL
COC(=O)[C@]12CO[C@H](C(C)(C)C)N1C(=O)/C(=C(/CCCOc1ccccc1)NCCCOC(C)C)C2=O; > 32 µg/mL
CCCC(=O)N1CC(=O)/C(=C(\CC23CC4CC(CC(C4)C2)C3)NCCCN2CCCCC2C)C1=O (centres undefined); 32 µg/mL
CCCCCCCCCCC/C(Nc1ccc(NC(=O)COCC(=O)O)cc1)=C1\C(=O)CN(CCCCCC)C1=O; 2 µg/mL
CCOC(=O)[C@]12CO[C@H](C(C)(C)C)N1C(=O)/C(=C(/CC13CC4CC(C)(CC(C)(C4)C1)C3)NC(C)CCCN(CC)CC)C2=O (some centres undefined); > 32 µg/mL

## Input Report MIC for O=C1CNC(=O)/C1=C(\NC1CCCCC1)c1cccc2ccccc12 tested on Streptococcus pneumoniae.
## Output > 32 µg/mL

## Input Could you share what MIC was measured for CCOC(=O)[C@]12CO[C@H](C(C)(C)C)N1C(=O)/C(=C(\C)NCCCN1CCOCC1)C2=O , tested on Streptococcus pneumoniae?
## Output > 32 µg/mL

## Input Param readout= MIC; system= Streptococcus pneumoniae; entry= C/C(NCCOc1ccccc1Cl)=C1/C(=O)CNC1=O ; returns value.
## Output > 32 µg/mL

## Input # get_value(readout= MIC, system= Streptococcus pneumoniae) for CCCCCCC(=O)N1CC(=O)/C(=C(\CCCOc2ccccc2)NCCCOC(C)C)C1=O
## Output > 32 µg/mL

###

Each item that follows carries a reported MIC.
System: Enterococcus faecium
protocol notes: Antimicrobial activity against vancomycin-resistant Enterococcus faecium
Assay type: functional

CCN(CC)CCCC(C)N/C(CCCOc1ccccc1)=C1/C(=O)C(CC(C)C)N(C(=O)c2ccccc2)C1=O (stereo not drawn); > 32 µg/mL

## Input Find the measured MIC: item CCOC(=O)[C@]12CO[C@H](C(C)(C)C)N1C(=O)/C(=C(\C)Nc1ncc(Cl)cn1)C2=O , target or system Enterococcus faecium.
## Output > 32 µg/mL

## Input Return MIC measured with Enterococcus faecium given this compound: CCCCOCCCN/C(C)=C1/C(=O)N2[C@@H](C(C)(C)C)OC[C@]2(C(=O)OCC)C1=O
## Output > 32 µg/mL

## Input Which measured MIC belongs to CCCCCCCCCCC/C(Nc1ccc(NC(=O)COCC(=O)O)cc1)=C1\C(=O)CN(CCCCCC)C1=O , tested on Enterococcus faecium?
## Output > 64 µg/mL

## Input Provide value of MIC for this record tested with Enterococcus faecium: CCOC(=O)[C@]12CO[C@H](C(C)(C)C)N1C(=O)/C(=C(\C)N1CCN(C3CCCCC3)CC1)C2=O
## Output > 32 µg/mL

## Input What is its MIC for Enterococcus faecium? Entry: CC(C)(C)[C@H]1OC[C@@H]2C(=O)/C(=C(/NCCCCN)c3ccccc3)C(=O)N21
## Output > 32 µg/mL

###

Test system: Streptococcus pneumoniae
protocol notes: Antimicrobial activity against penicillin- and erythromycin-resistant Streptococcus pneumoniae
Type: functional
reported property: MIC (µg/mL)
Give the value, in units of µg/mL, as a plain number.

Answered examples (5):
CCCCCCN1CC(=O)/C(=C(/NC2CCCCC2)C2CCCCC2)C1=O; 2
O=C(O)c1cn(C2CC2)c2cc(N3CCNCC3)c(F)cc2c1=O; 1
CCOC(=O)[C@]12CO[C@H](C(C)(C)C)N1C(=O)/C(=C(/CC13CC4CC(CC(C4)C1)C3)NC(C)CCCN(CC)CC)C2=O (some centres not stated); 16
CCCCCCCCCCC/C(NCCCOC(C)C)=C1\C(=O)[C@@H]2CCCC(=O)N2C1=O; 16
CCCC(=O)N1CC(=O)/C(=C(\CC23CC4CC(CC(C4)C2)C3)NCCCN2CCOCC2)C1=O; 64

## Input Query (molecule): CCCCCCCCCCCCC/C(NCCCNC(=O)COCC(=O)O)=C1\C(=O)CN(CCCCCC)C1=O ; field requested: MIC
## Output 16

## Input Consider the molecule shown here: CCCCCCCCCCC/C(NCCCOC(C)C)=C1/C(=O)N[C@@H](CCCC(=O)NCCCOC(C)C)C1=O What is its recorded MIC?
## Output 16

## Input Name the recorded MIC for C/C(NCCOc1ccccc1)=C1\C(=O)N2[C@H](C(C)(C)C)OC[C@@]2(C)C1=O (racemic) .
## Output 1

###

Test system: Enterococcus faecium
protocol notes: Antimicrobial activity against vancomycin-resistant Enterococcus faecium
Assay type: functional
Measured MIC of individual entries

# annotated cases, reported MIC shown
CCCCCCCCCN/C(C)=C1/C(=O)N2[C@@H](C(C)(C)C)OC[C@]2(C(=O)OC)C1=O; > 32 µg/mL
CCOC(=O)[C@]12CO[C@H](C(C)(C)C)N1C(=O)/C(=C(/CC(F)(F)C(F)(F)C(F)(F)C(F)(F)C(F)(F)F)NCCCN1CCOCC1)C2=O; 16 µg/mL

## Input Which value of MIC has been reported for CCCCCCCCCCCCC/C(NCCCN)=C1\C(=O)CN(CCCCCC)C1=O in the records?
## Output 1 µg/mL

## Input Which MIC value belongs to CCCC(=O)N1CC(=O)/C(=C(\CC23CC4CC(CC(C4)C2)C3)NCCCN2CCOCC2)C1=O ?
## Output > 64 µg/mL

## Input // MIC lookup, key: CCOC(=O)[C@]12CO[C@H](C(C)(C)C)N1C(=O)/C(=C(/CC13CC4CC(CC(C4)C1)C3)NCC(C)(C)CN(C)C)C2=O
## Output > 32 µg/mL

## Input // MIC lookup, key: COC(=O)[C@@]12CO[C@@H](C(C)(C)C)N1C(=O)/C(=C(\C)Nc1ccccc1)C2=O
## Output > 32 µg/mL

## Input Fill blank: measured MIC of the compound CCCC(=O)N1CC(=O)/C(=C(\CC23CC4CC(C)(CC(C)(C4)C2)C3)NCCCN2CCOCC2)C1=O is ____.
## Output > 64 µg/mL

## Input MIC for CCCCCCC/C=C/C(=O)N1C(=O)/C(=C(\C)Nc2ccc(N3CCOCC3)cc2)C(=O)C1CC(C)C (stereo not drawn) ?
## Output > 32 µg/mL

###

System: Haemophilus influenzae
protocol notes: Antimicrobial activity against Haemophilus influenzae ATCC 31517 MMSA
Type: functional
Entries and their measured MIC follow.

CCCC(=O)N1CC(=O)/C(=C(\CC23CC4CC(CC(C4)C2)C3)NCCCN2CCCCC2C)C1=O (configuration not stated); > 64 µg/mL
CCCCOCCCN/C(C)=C1/C(=O)N2[C@@H](C(C)(C)C)OC[C@]2(C(=O)OCC)C1=O; > 32 µg/mL
CCCCCCN/C(=C1/C(=O)CNC1=O)c1ccccc1; > 32 µg/mL
CCCCCCCCCC/C(NCCCOC(C)C)=C1\C(=O)C(CCSC)N(C(C)=O)C1=O (configuration not stated); > 32 µg/mL
CCCCCCN1CC(=O)/C(=C(/NC2CCCCC2)C2CCCCC2)C1=O; > 64 µg/mL

## Input Which MIC is listed for CCOC(=O)[C@]12CO[C@H](C(C)(C)C)N1C(=O)/C(=C(/CC13CC4CC(C)(CC(C)(C4)C1)C3)NC(C)CCCN(CC)CC)C2=O (some centres not stated) ?
## Output > 32 µg/mL

## Input So what does the record say about MIC for C/C(NC12CC3CC(CC(C3)C1)C2)=C1\C(=O)N2[C@H](C(C)(C)C)OC[C@@]2(C)C1=O (mixture of isomers) ?
## Output > 64 µg/mL

## Input Reported MIC, molecule CCCC(=O)N1CC(=O)/C(=C(\CC23CC4CC(CC(C4)C2)C3)NCCCN2CCOCC2)C1=O : ____
## Output > 64 µg/mL

## Input For the molecule CC1CCCCN1CCCN/C(CC12CC3CC(C)(CC(C)(C3)C1)C2)=C1/C(=O)[C@@H]2CCCC(=O)N2C1=O (some centres not stated) , what MIC is on record?
## Output > 32 µg/mL

## Input Could you tell me which MIC is on file for C/C(NCCOc1ccccc1)=C1/C(=O)[C@@H]2CO[C@@H](C(C)(C)C)N2C1=O ?
## Output > 32 µg/mL

## Input Which MIC is listed for O=C1CNC(=O)/C1=C(\NC1CCCCC1)c1cccc2ccccc12 ?
## Output > 32 µg/mL

## Input Look up MIC: CCOC(=O)[C@]12CO[C@H](C(C)(C)C)N1C(=O)/C(=C(/CC(F)(F)C(F)(F)C(F)(F)C(F)(F)C(F)(F)F)NCCCN1CCOCC1)C2=O
## Output > 64 µg/mL

Every entry's value here was drawn from ChEMBL document CHEMBL3232809.
